# EXPERIMENT NOTES: chemical genetic growth profiling, strain panel (AID 1159580);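 also: tested at 20 µM; growth read once vehicle control cultures reached saturation at 30 °C; 1 = growth at the plate median or of vehicle wells; lower values mean less growth of the strain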
# CONDITION PARAMETERS: S. cerevisiae deletion strains, growth OD, locus YDL134C, strain PPH21, active compounds read low
About 2,000 (36%) of roughly 5,500 compounds were called active. Inconclusive results (about 18%) are left out. Some of the results follow.
MEASURED ATTRIBUTE: normalized growth
The answer should be written as a number, with no unit following it.

[[record]]
compound = "O=S1OCC2C(CO1)C1(Cl)C(Cl)=C(Cl)C2(Cl)C1(Cl)Cl (stereo not drawn)"
measured_attribute = "normalized growth"
observed = 0.997

[[record]]
compound = "CC1(C)OC(=O)C=CC2(C)C1CC(O)C1(C)C2CCC2(C)C(c3ccoc3)OC(=O)C3OC321 (stereo not drawn)"
measured_attribute = "normalized growth"
observed = 1.01

[[record]]
compound = "O=C1NC(=O)C(=O)C(=O)N1"
measured_attribute = "normalized growth"
observed = 1.02

[[record]]
compound = "O=C(C1CCCCC1)N1CC(=O)N2CCc3ccccc3C2C1 (stereo not drawn)"
measured_attribute = "normalized growth"
observed = 1


Reported normalized growth ( C=C1C(C)C2C(Cc3ccccc3)NC(=O)C23OC(=O)/C=C/C(O)CCCC(C)C/C=C/C3C1O (stereo not drawn) ) = 1.01

Reported normalized growth ( CC(=O)c1ccc(-c2cccs2)s1 ) = 0.999

Reported normalized growth ( CC[C@H](C)C(=O)O[C@H]1C[C@@H](C)C=C2C=C[C@H](C)[C@H](CC[C@@H]3C[C@@H](O)CC(=O)O3)[C@H]21 ) = 0.971

meta.source: PubChem BioAssay AID1159580
